Structures can show the parent of a compound that is named as a salt.
The entries below come with measured melting point values attached.

Worked set:
NCC1CNc2cccc(-c3ccccc3Cl)c2O1 (racemic) (as salt: hydrochloride) : 140 °C (dec.)
NC[C@@H]1CNc2cccc(-c3ccc(Cl)cc3Cl)c2O1 (as salt: hydrochloride) : 163 °C (dec.)
COc1ccc(-c2cccc3c2O[C@@H](CN)CN3)cc1 (as salt: hydrochloride) : 198 °C (dec.)

Pending compound:
Q: Output measured melting point for this item: CN1CC(CN)Oc2c(-c3ccccc3C(F)(F)F)cccc21 (racemic) (as salt: hydrochloride)
A: 90 °C (dec.)

----------
- Study target: human 5-HT2C receptor (Homo sapiens, UniProt P28335)
- Construct: expressed in transfected cells; host or cells: CHO (Chinese Hamster Ovary) cells; membrane preparation
- Sequence (P28335 33-458): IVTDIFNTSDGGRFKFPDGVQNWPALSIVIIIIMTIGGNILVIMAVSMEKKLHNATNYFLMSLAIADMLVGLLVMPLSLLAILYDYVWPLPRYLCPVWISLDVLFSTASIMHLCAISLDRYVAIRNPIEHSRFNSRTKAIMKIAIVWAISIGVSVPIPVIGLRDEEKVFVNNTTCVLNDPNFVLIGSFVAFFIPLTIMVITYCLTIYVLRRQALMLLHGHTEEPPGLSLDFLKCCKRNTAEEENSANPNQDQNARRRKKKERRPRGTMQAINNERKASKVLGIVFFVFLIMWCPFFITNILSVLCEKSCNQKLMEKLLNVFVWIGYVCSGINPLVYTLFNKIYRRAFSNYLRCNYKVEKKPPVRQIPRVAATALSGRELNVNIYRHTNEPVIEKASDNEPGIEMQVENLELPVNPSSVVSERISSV
- Test: 5-HT2C receptor binding, [125I]DOI displacement, membranes of transfected CHO cells
- Experimental context: read-out: 5-HT2C Binding Ki avg
Labelling: Ki reported below 100 nM becomes MET; at or above becomes NOT MET.

Solved entries:
CN1CC(CN)Oc2c(-c3ccc(Cl)cc3Cl)cccc21 (racemic) : MET
Cc1cc(Cl)ccc1-c1cc(Cl)cc2c1NC(CN)CO2 (racemic) : NOT MET
Cc1cc(Cl)ccc1-c1cccc2c1OC(CN)CN2C (racemic) : MET
Cc1cc(Cl)ccc1-c1cccc2c1O[C@H](CN)CN2 : NOT MET
COc1ccc(-c2cccc3c2O[C@@H](CN)CN3)c(C)c1 : MET

Now, please, on to the next compound.
Q: Identify whether the compound Cc1cc(Cl)ccc1-c1cc(F)cc2c1NC(CN)CO2 (racemic) records Ki below 100 nM.
A: NOT MET

----------
- Study target: human 5-HT2C receptor (Homo sapiens, UniProt P28335)
- Construct: expressed in transfected cells; host or cells: CHO (Chinese Hamster Ovary) cells; membrane preparation
- Test: 5-HT2C receptor binding, [125I]DOI displacement, membranes of transfected CHO cells
- Experimental context: read-out: 5-HT2C Binding Ki avg
Categories are defined by ranges of Ki, namely lower bin = under 10 nM, middle bin = from 10 nM up to 100 nM, upper bin = 100 nM and over

Solved entries:
NCC1COc2cc(F)cc(-c3ccccc3Cl)c2N1 (racemic) : upper bin
COc1ccc(-c2cc(Cl)cc3c2NC(CN)CO3)cc1 (racemic) : upper bin
NC[C@@H]1CNc2cccc(-c3ccccc3C(F)(F)F)c2O1 : middle bin

Q: Could you place COc1ccc(-c2cccc3c2O[C@H](CN)CN3)c(Cl)c1 in its proper category? Many thanks.
A: upper bin

Q: Could you place NCC1CNc2cccc(-c3ccc(Cl)cc3Cl)c2O1 (racemic) in its proper category? Many thanks.
A: middle bin

Q: Could you place NCC1COc2cc(Cl)cc(-c3ccc(C(F)(F)F)cc3C(F)(F)F)c2N1 (racemic) in its proper category? Many thanks.
A: upper bin

----------
The entries below come with measured pEC50 values attached.
- Study target: human 5-HT2C receptor (Homo sapiens)
- Construct: membrane preparation
- Test: 5-HT2C receptor-stimulated calcium mobilization (FLIPR) in CHO cells
- Experimental context: calcium mobilization, CHO cells; read-out: 5-HT2C Function EC50
Note: pEC50 values are expressed as the negative base-10 logarithm of concentration in M.

Cc1ccccc1-c1cccc2c1OC(CN)CN2 (racemic) : 7.00
NCC1COc2cc(F)cc(-c3ccccc3C(F)(F)F)c2N1 (racemic) : 6.48
COc1ccc(-c2cccc3c2OC(CN)CN3)c(C)c1 (racemic) : 7.60

Q: Recall the reported pEC50 of NCC1CNc2cccc(-c3cc(Cl)ccc3Cl)c2O1 (racemic) when tested on human 5-HT2C receptor (Homo sapiens).
A: 7.92

Q: Recall the reported pEC50 of NCC1CNc2cccc(-c3ccccc3Cl)c2O1 (racemic) when tested on human 5-HT2C receptor (Homo sapiens).
A: 8.52

Q: Recall the reported pEC50 of Cc1ccccc1-c1cccc2c1OC(CN)CN2C (racemic) when tested on human 5-HT2C receptor (Homo sapiens).
A: 7.09

Q: Recall the reported pEC50 of COc1ccccc1-c1cccc2c1OC(CN)CN2C (racemic) when tested on human 5-HT2C receptor (Homo sapiens).
A: 7.31

Q: Recall the reported pEC50 of Cc1cc(Cl)ccc1-c1cccc2c1OC(CN)CN2 (racemic) when tested on human 5-HT2C receptor (Homo sapiens).
A: 6.55

Q: Recall the reported pEC50 of NC[C@@H]1CNc2cccc(-c3ccccc3Cl)c2O1 when tested on human 5-HT2C receptor (Homo sapiens).
A: 7.35

----------
Counter-ions that a name gives are not always drawn.
Parameter measured: melting point

Worked set:
Cc1ccccc1-c1cccc2c1OC(CN)CN2C (racemic) (as salt: hydrochloride) [Example 8] : 92 °C (dec.)
COc1ccc(-c2cc(Cl)cc3c2NC(CN)CO3)c(Cl)c1 (racemic) (as salt: hydrochloride) [Example 32] : 105 °C (dec.)
NCC1CNc2cccc(-c3ccc(Cl)cc3C(F)(F)F)c2O1 (racemic) (as salt: hydrochloride) [Example 18] : 205 to 207 °C

Q: Output measured melting point for this item: Cc1cc(Cl)ccc1-c1cc(Cl)cc2c1NC(CN)CO2 (racemic) (as salt: hydrochloride) [Example 35]
A: 102 °C (dec.)

----------
The entries below come with measured melting point values attached.
Where a name gives a salt, the structure may show the parent alone.

Worked set:
Cc1ccc(-c2cc(Cl)cc3c2NC(CN)CO3)c(C(F)(F)F)c1 (racemic) (as salt: hydrochloride) : 98 °C (dec.)
COc1ccc(-c2cccc3c2OC(CN)CN3C)c(C)c1 (racemic) (as salt: hydrochloride) : 85 °C (dec.)
Cc1cc(Cl)ccc1-c1cccc2c1O[C@@H](CN)CN2 (as salt: hydrochloride) : 196 °C (dec.)

Pending compound:
Q: Output measured melting point for this item: COc1ccccc1-c1cc(Cl)cc2c1NC(CN)CO2 (racemic) (as salt: hydrochloride)
A: 100 °C (dec.)

----------
The entries below come with measured melting point values attached.
Structures can show the parent of a compound that is named as a salt.

CN1CC(CN)Oc2c(-c3ccccc3F)cccc21 (racemic) (as salt: hydrochloride) : 104 °C (dec.)
Cc1ccccc1-c1cc(Cl)cc2c1NC(CN)CO2 (racemic) (as salt: hydrochloride) : 86 °C (dec.)
NCC1COc2cc(Cl)cc(-c3ccccc3F)c2N1 (racemic) (as salt: hydrochloride) : 95 °C (dec.)

Pending molecule:
Q: Output measured melting point for this item: NCC1CNc2cccc(-c3ccc(C(F)(F)F)cc3C(F)(F)F)c2O1 (racemic) (as salt: hydrochloride)
A: 192 to 194 °C

----------
The entries below come with measured melting point values attached.
Counter-ions that a name gives are not always drawn.

Worked set:
CN1CC(CN)Oc2c(-c3cc(Cl)ccc3Cl)cccc21 (racemic) (as salt: hydrochloride) [Example 13] : 90 °C (dec.)
NCC1COc2cc(Cl)cc(-c3ccccc3)c2N1 (racemic) (as salt: hydrochloride) [Example 29] : 92 °C (dec.)
Cc1ccccc1-c1cccc2c1OC(CN)CN2 (racemic) (as salt: hydrochloride) [Example 17] : 195 to 197 °C
NCC1CNc2cccc(-c3ccccc3C(F)(F)F)c2O1 (racemic) (as salt: hydrochloride) [Example 22] : 185 to 187 °C
COc1ccc(-c2cccc3c2O[C@H](CN)CN3)c(Cl)c1 (as salt: hydrochloride) [Example 46] : 211 °C (dec.)
NC[C@@H]1CNc2cccc(-c3cc(Cl)ccc3Cl)c2O1 (as salt: hydrochloride) [Example 53] : 130 °C (dec.)

Pending compound:
Q: Output measured melting point for this item: COc1ccc(-c2cccc3c2OC(CN)CN3)c(C)c1 (racemic) (as salt: hydrochloride) [Example 24]
A: 230 to 232 °C

----------
- Study target: human 5-HT2C receptor (Homo sapiens)
- Construct: expressed in transfected cells; host or cells: CHO (Chinese Hamster Ovary) cells; membrane preparation
- Test: 5-HT2C receptor binding, [125I]DOI displacement, membranes of transfected CHO cells
- Experimental context: reference compounds; value (95% confidence interval); [125I]DOI binding; read-out: Ki
Parameter measured: pKi
Note: pKi values are expressed as the negative base-10 logarithm of concentration in M.

Q: Output measured pKi for this item: CSc1ccc2c(c1)C(N1CCN(C)CC1)Cc1ccccc1S2 (stereo not shown) [Methiothepin, reference compound]
A: 8.34

----------
- Study target: human 5-HT2C receptor (Homo sapiens, UniProt P28335)
- Construct: membrane preparation
- Test: 5-HT2C receptor-stimulated calcium mobilization (FLIPR) in CHO cells
- Experimental context: calcium mobilization, CHO cells; read-out: 5-HT2C Function EC50
Parameter measured: log10 EC50 (log10 of the value in nM)
Scale: decimal log of EC50, EC50 in nM.

Q: Recall the reported log10 EC50 of CN1CC(CN)Oc2c(-c3cc(Cl)ccc3Cl)cccc21 (racemic) when tested on human 5-HT2C receptor (Homo sapiens, UniProt P28335).
A: 2.12

Data provenance: patent US20100035871A1
